assayExplanation: ATG_AP_1_CIS: Attagene CIS-FACTORIAL HepG2 Assay for human Activator Protein 1 (AP-1) (AID 2282931)
measurementParameters: HepG2 Attagene cis-factorial AP-1 reporter mRNA; actives raise or lower the signal
The source made the active and inactive calls. How the source made its calls: active means hit-call score of the fitted dose curve at least 0.9, where 1 is the maximum; inactive means score below 0.9.
Output constraint: value belongs to active, inactive

Q: Kindly provide the recorded test outcome for the following compound: c1ccc(CNCc2ccccc2)cc1
Ans: inactive

Q: Test call for this compound, please: CCC(Cc1ccccc1)(C(=O)c1ccc(N2CCOCC2)cc1)N(C)C (stereo unspecified)
Ans: active

Q: // outcome(item) with item = CCCNC(=O)NS(=O)(=O)c1ccc(Cl)cc1
Ans: inactive

Q: Assay outcome for CCCCCC(C)O (stereo unspecified) : what was it?
Ans: inactive

Q: # fetch the recorded call for Clc1nc2ccccc2s1 here
Ans: inactive

Q: # outcome recorded in this test, key = Nc1ccc(Oc2ccc(N)c(N)c2)cc1
Ans: inactive

Q: For COCc1c(C(C)C)nc(C(C)C)c(/C=C/[C@@H](O)C[C@@H](O)CC(=O)O)c1-c1ccc(F)cc1 , what call appears in the results of this test?
Ans: inactive

Q: Outcome? COc1ccc(C(Cl)=C(c2ccc(OC)cc2)c2ccc(OC)cc2)cc1
Ans: inactive

Q: Hey, what did the test say about C1=Cc2ccccc2C1 ?
Ans: inactive

Q: Hi team, can someone confirm the assay call for C=C(C)[C@H]1CC=C(C)CC1 ?
Ans: inactive

Q: What classification did CCc1c(C(=O)O)c(=O)cnn1-c1ccc(Cl)cc1 end up with in this test?
Ans: inactive

Q: Identify the outcome logged in this assay for the compound shown: CCOC(=O)N1CCC(=C2c3ccc(Cl)cc3CCc3cccnc32)CC1
Ans: inactive

Q: What call does the record list for Cc1ccc(C2OC[C@@H]3OC(c4ccc(C)cc4)O[C@H]([C@H](O)CO)[C@@H]3O2)cc1 (stereo partly specified) ?
Ans: active

Q: Query: recorded result category for O=C1CCCC1 in this test
Ans: inactive

Q: How did this test come out for CC(=O)Oc1ccc(C)cc1 ?
Ans: inactive

Q: Any idea what this test logged for Cc1ccc(C(C)c2ccc(C)c(C)c2)cc1C ?
Ans: active

* * *

assayExplanation: ATG_AP_2_CIS: Attagene CIS-FACTORIAL HepG2 Assay for human Activator Protein 2 (AP-2) (AID 2282932)
measurementParameters: HepG2 AP-2 cis-reporter, Attagene transcription factor profiling; actives raise or lower the signal
Activity calls are given as the source filed them. The calls were made as follows: active = hit-call score of the fitted dose curve at least 0.9, where 1 is the maximum; inactive = score below 0.9.
The reply should be one of these categories: active, inactive

Q: Write down the call the test reported for this compound. Item: O=C(Oc1ccccc1)c1ccc2ccccc2c1O
Ans: inactive

Q: # outcome recorded in this test, key = CC(=O)NS(=O)(=O)c1ccc(N)cc1
Ans: inactive

Q: What did this assay record as the result for CC/C=C\CCOC(=O)CCCCC ?
Ans: inactive

Q: GET /call?item= O=C1C(N(CO)C(=O)NCO)N(CO)C(=O)N1CO (stereo unspecified) returns the recorded outcome of this test.
Ans: inactive

Q: Per the assay record, what outcome was assigned to Nc1nc2ccccc2[nH]1 ?
Ans: inactive

Q: Test call for this compound, please: O=C(O)c1cc(Cl)cc([N+](=O)[O-])c1Cl
Ans: inactive

Q: Which outcome was assigned to CCCCCCCCCCOS(=O)(=O)O in this test?
Ans: inactive

Q: Hey, what did the test say about CCCCCCCC/C=C\CCCCCCCC(=O)OCCO ?
Ans: inactive

Q: Record lookup: outcome of this test for C1=Cc2ccccc2C1 ?
Ans: inactive

Q: What is the recorded call for this compound in the test? N#CCc1ccc(Cl)cc1Cl
Ans: inactive

Q: Outcome logged for O=[N+]([O-])C1(Br)COCOC1 in this assay:
Ans: inactive

Q: Please share the test call associated with O=C1CCC(=O)N1Cl .
Ans: inactive

Q: What did this assay record as the result for Oc1ccc(Cl)cc1Cc1cc(Cl)ccc1O ?
Ans: active

Q: What call does the record list for O=c1cc(-c2ccccc2)oc2ccccc12 ?
Ans: active

Q: # lookup: test call for O=CN1CCCCC1
Ans: inactive

Q: Would you mind telling me which call this test gave CCCOCCOCCOCCO ?
Ans: inactive

Q: What did this assay record as the result for CCOC(F)(F)C(F)(F)C(F)(F)C(F)(F)F ?
Ans: inactive

Q: Field: outcome | Entry: CCCCC(CC)COC(=O)c1ccccc1 (stereo unspecified)
Ans: inactive

Q: What outcome does the record of this test show for C=CCCCCCCCCC(=O)OCCCC ?
Ans: inactive

Q: Which outcome was assigned to NC(=O)NNC(N)=O in this test?
Ans: inactive

Q: Returns: the outcome recorded for CC(C)(Oc1ccc(C2CC2(Cl)Cl)cc1)C(=O)O (stereo unspecified) in this assay.
Ans: inactive

Q: Just curious, what result did C=CC(=O)OCCOC1C2CCC1C1CC=CC12 (stereo unspecified) get here?
Ans: inactive

Q: In this assay, the call recorded for CN(C)c1ccc(C(=N)c2ccc(N(C)C)cc2)cc1 was what?
Ans: inactive

Q: Please share the test call associated with CN(C)c1ccc(N=Nc2ccccc2C(=O)O)cc1 .
Ans: inactive

Q: Which outcome was assigned to Nc1ccc2cc3ccccc3cc2c1 in this test?
Ans: inactive

Q: Please state the recorded outcome for this compound: CCCCCc1ccc(Cl)cc1
Ans: inactive

* * *

assayExplanation: ATG_ERE_CIS: Attagene CIS-FACTORIAL HepG2 Assay for Estrogen Response Element (ERE) (AID 2282940)
measurementParameters: HepG2 ERE cis-reporter, Attagene RNA transcript; actives raise or lower the signal
The source made the active and inactive calls. How the source made its calls: active means hit-call score of the fitted dose curve at least 0.9, where 1 is the maximum; inactive means score below 0.9.
Form entry, call: pick from 1.0 = active, 0.0 = inactive

Q: # fetch the recorded call for C1=CCCC1 here
Ans: 0.0

Q: Check the results log: what was the call for CC1(C)[C@H]2CC[C@]1(C)C(=O)C2 ?
Ans: 0.0

Q: Returns: the outcome recorded for CCCCNc1ccc(NCCCC)c2c1C(=O)c1ccccc1C2=O in this assay.
Ans: 0.0

Q: Recorded test call requested for C=CC(=O)OCCC(=O)O
Ans: 0.0

Q: Hi, sorry to bother you, what did the test record for CC/C=C\CCOC(=O)CCCCC ?
Ans: 0.0

Q: Assay outcome for CCCCCCCCCCCCCCCC(=O)OCC : what was it?
Ans: 0.0

Q: Which result was noted for this compound in the test: SCCc1cnccn1
Ans: 0.0

Q: Entry C=C(C)C(=O)OCCOc1ccccc1 : call = ?
Ans: 0.0

Q: // param item: C=CC(=O)OCCOC(=O)C=C ; yields the recorded call
Ans: 0.0

Q: Hey, what did the test say about COC(=O)c1ccc2cc(C(=O)OC)ccc2c1 ?
Ans: 0.0

Q: For CCOC(=O)Cc1cccc2ccccc12 , which call appears in the assay record?
Ans: 0.0

Q: Assay outcome for O=c1[nH]nc(-c2ccc([N+](=O)[O-])o2)o1 : what was it?
Ans: 0.0

Q: So what was the verdict on COC(=O)c1ccccc1OC in this test?
Ans: 0.0

Q: What did the test return for Nc1nc2ccccc2[nH]1 ?
Ans: 1.0

Q: Hi, sorry to bother you, what did the test record for CC(=O)c1ccc2c(c1)CCCC2 ?
Ans: 0.0

Q: Any idea what this test logged for O=C(O)C(c1ccc(Cl)cc1)c1ccc(Cl)cc1 ?
Ans: 1.0

Q: What outcome does the record of this test show for NC(CO)(CO)CO ?
Ans: 0.0

Q: Any idea what this test logged for COc1c2ccoc2cc2oc(=O)ccc12 ?
Ans: 0.0

Q: Check the results log: what was the call for COC(=O)/C=C/C(C)=C\C=C\C(C)=C\C=C\C=C(C)\C=C\C=C(C)\C=C\C(=O)O ?
Ans: 0.0

Q: Hello, I am checking results. What call was entered for CCCNC(=O)NS(=O)(=O)c1ccc(Cl)cc1 ?
Ans: 0.0

Q: Dear colleague, could you share the recorded outcome for Cc1ccccc1C when you have a moment?
Ans: 0.0

Q: Which outcome did this test record for the compound O=C(C(Cl)Cl)N1CCOC12CCCCC2 ?
Ans: 0.0

Q: Which outcome did this test record for the compound COc1ccc([C@@H]2CC(=O)c3c(O)cc(O[C@@H]4O[C@H](CO[C@@H]5O[C@@H](C)[C@H](O)[C@@H](O)[C@H]5O)[C@@H](O)[C@H](O)[C@H]4O)cc3O2)cc1OC ?
Ans: 0.0

Q: Hi, do you know how CC(CC=O)c1ccccc1 (centres undefined) came out in this test?
Ans: 1.0

Q: Outcome logged for COc1cc(C)ccc1C(C)C in this assay:
Ans: 0.0

Q: Per the records of this test, what outcome belongs to OC1OCCOC1O (centres undefined) ?
Ans: 0.0

Q: Could you please tell me the result logged for c1cc(C(c2ccc(OCC3CO3)cc2)C(c2ccc(OCC3CO3)cc2)c2ccc(OCC3CO3)cc2)ccc1OCC1CO1 (centres undefined) in this assay?
Ans: 0.0

Q: Give the logged outcome of this assay for the following compound: Cc1oncc1C(=O)Nc1ccc(C(F)(F)F)cc1
Ans: 1.0

Q: Field: outcome | Entry: CC(=O)[C@@]1(O)CC[C@H]2[C@@H]3C[C@H](C)C4=CC(=O)C=C[C@]4(C)[C@@]3(F)[C@@H](O)C[C@@]21C
Ans: 0.0

Q: GET /call?item= CCCCCC(C)O (centres undefined) returns the recorded outcome of this test.
Ans: 0.0

Q: Recorded test outcome, item C[C@]12C=CC(=O)C=C1CC[C@@H]1[C@@H]2[C@@H](O)C[C@@]2(C)[C@H]1CC[C@]2(O)C(=O)CO
Ans: 0.0

Q: // param item: O=C(c1ccccc1)c1ccc(O)c(O)c1O ; yields the recorded call
Ans: 1.0

Q: Outcome logged for CC1=Nc2ccc3ccccc3c2C1(C)C in this assay:
Ans: 0.0

Q: Entry OCCN(CCO)c1ccccc1 : call = ?
Ans: 0.0

Q: Hi, sorry to bother you, what did the test record for COc1ccc(NC(C)=O)cc1N ?
Ans: 0.0

Q: Hey, what did the test say about CCCCC/C=C\C/C=C\CCCCCCCC(=O)OC ?
Ans: 0.0

Q: Identify the outcome logged in this assay for the compound shown: O=C(Nc1cccc(C(F)(F)F)c1)c1cc(Br)cc(Br)c1O
Ans: 0.0

Q: Recorded call for C=CC(C)(CCC=C(C)C)OC(=O)C(C)C (centres undefined) ?
Ans: 1.0

Q: Called result for O=C(O)c1cc2ccccc2nc1C(=O)O
Ans: 0.0

Q: Recorded test outcome, item O=C(O)c1cc(Cl)cc([N+](=O)[O-])c1Cl
Ans: 0.0

Q: # outcome recorded in this test, key = CC(=O)Oc1ccc(C)cc1
Ans: 0.0

Q: Give the logged outcome of this assay for the following compound: O=c1c2ccccc2nnn1CCl
Ans: 0.0

Q: Please let me know the test result on file for C=C[C@](C)(O)CC[C@@H]1[C@@]2(C)CCCC(C)(C)[C@@H]2CC[C@@]1(C)O .
Ans: 0.0

Q: Please state the recorded outcome for this compound: CC=CC(F)(F)C(F)(F)C(F)(F)F
Ans: 0.0
